Test system: P. falciparum male gametocytes
Assay: P. falciparum Dual Gamete Formation Assay (PfDGFA), male readout (exflagellation)
Assay type: cell-based, Plasmodium falciparum NF54
Conditions: Plasmodium falciparum; 2µM, 24h preincubation with gametocytes; average of replicates; read-out: Average inhibition male (%)
The following compounds are listed with their measured inhibition at 2 µM values.

[
  {
    "record.smiles": "COc1ccc(Nc2ncc(C#N)c(Nc3ccccc3C(N)=O)n2)cc1N1CCN(C)CC1.Cl",
    "inhibition at 2 µM / %": 97.4
  },
  {
    "record.smiles": "CNC(=O)c1ccccc1Nc1nc(Nc2ccc(N3CCN(C)CC3)nc2)ncc1C.Cl",
    "inhibition at 2 µM / %": 96.1
  },
  {
    "record.smiles": "Cc1ccc(C)c(S(=O)(=O)NCC2CCN(Cc3ccc(O)cc3)CC2)c1.O=C(O)C(F)(F)F",
    "inhibition at 2 µM / %": 95.1
  },
  {
    "record.smiles": "Oc1cccc(CNCCCN(Cc2ccccc2)c2ccccc2)c1",
    "inhibition at 2 µM / %": 97.7
  }
]
